- Target of assay: ENaC (Epithelial Sodium Channel) (Mus musculus, UniProt Q61180+Q9WU38+Q9WU39)
- Construct: Mouse kidney M−1 cells were cultivated in DMEM; endogenous in cells; host or cells: Mouse kidney M-1 cells, cultivated with dexamethasone on transwell filters
- Sequence (Q61180 1-699): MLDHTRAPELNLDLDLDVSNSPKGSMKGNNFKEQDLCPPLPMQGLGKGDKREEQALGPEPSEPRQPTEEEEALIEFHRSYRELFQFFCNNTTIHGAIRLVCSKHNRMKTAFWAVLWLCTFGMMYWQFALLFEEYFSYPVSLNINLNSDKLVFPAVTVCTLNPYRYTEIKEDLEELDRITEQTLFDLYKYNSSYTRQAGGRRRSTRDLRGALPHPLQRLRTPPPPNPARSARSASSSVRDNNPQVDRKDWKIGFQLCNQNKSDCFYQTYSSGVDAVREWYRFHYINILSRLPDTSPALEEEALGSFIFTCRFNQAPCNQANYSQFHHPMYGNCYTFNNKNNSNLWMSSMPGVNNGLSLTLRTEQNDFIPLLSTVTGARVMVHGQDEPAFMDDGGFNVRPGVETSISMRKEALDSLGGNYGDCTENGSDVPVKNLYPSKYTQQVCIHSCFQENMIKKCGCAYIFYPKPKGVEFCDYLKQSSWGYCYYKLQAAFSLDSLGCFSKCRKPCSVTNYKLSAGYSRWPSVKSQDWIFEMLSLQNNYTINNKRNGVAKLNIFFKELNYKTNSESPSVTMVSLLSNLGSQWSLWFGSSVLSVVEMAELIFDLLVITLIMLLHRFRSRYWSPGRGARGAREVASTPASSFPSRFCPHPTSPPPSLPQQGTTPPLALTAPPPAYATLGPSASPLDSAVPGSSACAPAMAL
- Sequence (Q9WU38 1-638): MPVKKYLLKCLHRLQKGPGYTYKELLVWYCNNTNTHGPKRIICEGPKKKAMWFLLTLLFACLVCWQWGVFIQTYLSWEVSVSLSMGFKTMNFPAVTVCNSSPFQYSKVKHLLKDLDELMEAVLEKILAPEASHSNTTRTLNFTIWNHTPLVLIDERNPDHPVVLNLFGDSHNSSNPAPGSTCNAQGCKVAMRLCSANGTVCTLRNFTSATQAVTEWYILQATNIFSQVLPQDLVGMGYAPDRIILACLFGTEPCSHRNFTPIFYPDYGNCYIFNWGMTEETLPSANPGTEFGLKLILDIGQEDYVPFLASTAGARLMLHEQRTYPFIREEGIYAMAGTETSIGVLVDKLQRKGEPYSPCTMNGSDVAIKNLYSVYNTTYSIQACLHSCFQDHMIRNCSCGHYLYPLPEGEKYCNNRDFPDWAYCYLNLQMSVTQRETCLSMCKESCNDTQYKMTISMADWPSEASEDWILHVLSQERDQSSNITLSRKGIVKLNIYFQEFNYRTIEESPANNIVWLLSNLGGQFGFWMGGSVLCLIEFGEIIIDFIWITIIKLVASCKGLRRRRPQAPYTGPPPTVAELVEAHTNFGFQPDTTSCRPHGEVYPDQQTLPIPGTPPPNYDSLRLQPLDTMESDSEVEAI
- Sequence (Q9WU39 1-655): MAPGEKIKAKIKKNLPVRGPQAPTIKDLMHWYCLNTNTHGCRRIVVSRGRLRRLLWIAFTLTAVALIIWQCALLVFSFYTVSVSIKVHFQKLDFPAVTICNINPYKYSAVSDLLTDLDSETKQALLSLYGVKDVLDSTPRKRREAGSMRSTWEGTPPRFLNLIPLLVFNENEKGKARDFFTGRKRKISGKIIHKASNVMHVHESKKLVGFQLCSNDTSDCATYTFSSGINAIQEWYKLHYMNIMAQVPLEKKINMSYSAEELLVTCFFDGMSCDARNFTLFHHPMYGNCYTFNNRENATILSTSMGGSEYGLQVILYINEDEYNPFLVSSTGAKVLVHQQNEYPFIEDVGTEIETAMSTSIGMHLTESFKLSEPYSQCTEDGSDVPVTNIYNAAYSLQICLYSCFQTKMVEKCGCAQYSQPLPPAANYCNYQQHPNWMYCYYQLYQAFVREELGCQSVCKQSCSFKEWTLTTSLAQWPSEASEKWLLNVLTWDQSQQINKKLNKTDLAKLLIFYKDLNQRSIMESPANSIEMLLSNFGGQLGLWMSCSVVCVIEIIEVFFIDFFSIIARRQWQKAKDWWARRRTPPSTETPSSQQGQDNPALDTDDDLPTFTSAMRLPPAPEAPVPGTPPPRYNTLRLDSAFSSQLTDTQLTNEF
- Assay protocol: Ussing Chamber assay (short circuit current, amiloride sensitive I_SC)
- Assay type: cell-based
- Experimental parameters: Ussing chamber, mouse kidney M-1 cells, short circuit current, compound added to the apical solution; read-out: IC50
Metric: IC50 (nM)

[1] Nc1nc(N)c(C(=O)N[C@H]2CCC[N+](CCCc3ccc(OCC(=O)N4CC[S+]([O-])CC4)cc3)(CCCc3ccc(OCC(=O)N4CC[S+]([O-])CC4)cc3)C2)nc1Cl
[2] CN(Cc1cccnc1)C(=O)COc1ccc(CCC[N+]2(CCCc3ccc(OCC(=O)N(C)Cc4cccnc4)cc3)CCC[C@H](NC(=O)c3nc(Cl)c(N)nc3N)C2)cc1
[3] Nc1nc(N)c(C(=O)N[C@H]2CCC[N+](CCCc3ccc(OCC(=O)NCc4ccncc4)cc3)(CCCc3ccc(OCC(=O)NCc4ccncc4)cc3)C2)nc1Cl
Can you order these entries from above by IC50? Start with the largest number and work down. Ranked list of labels, please, in the requested order.
1, 2, 3

Source: patent US9096548B2
